Molecular target: purified HLA DRB1*0701 (human)
Assay: competition with 125I-labelled reference peptide, purified HLA
quantityMeasured: pIC50
Expect pIC50 as a plain number equal to -log10 of the molar concentration.

What value of pIC50 has been reported for the following binder? AKSMEYDAVATTHSW (modifications not checked) [Flu.PB1.655]
6.53
